B1: TPR 5TU (parent)
chain: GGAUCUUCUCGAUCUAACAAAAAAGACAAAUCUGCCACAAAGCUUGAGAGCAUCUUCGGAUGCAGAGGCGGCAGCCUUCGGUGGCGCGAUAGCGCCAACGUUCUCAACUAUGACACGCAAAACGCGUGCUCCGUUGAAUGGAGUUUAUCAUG

- Variants of: B1
- test_method_notes: polymerase ribozyme fitness, log enrichment relative to wild type (log ratio); higher = more active; in vitro selection for triplet polymerase activity
This sample holds only a part of the variants without activity.
Each entry below carries its recorded polymerase ribozyme fitness (log ratio).

Here is how some variants turned out for polymerase ribozyme fitness (log ratio).
mutation_name	polymerase ribozyme fitness (log ratio)
C54A A89U G92C A121U	-3
G84C C123G U146G	-2.7
U61G C93G C99G C123G C125G	≤ -4.2
A26U C85U A115G	-3.36
C54U G71U C85A C96G G133C U145G G152A	≤ -4.2
C51G C63U C116U U139C	≤ -4.2
U31G A37U A49C C93A A106G G117C U145C U148A	≤ -4.2
A20C A21G A23C A28U C38A	≤ -4.2
U15G A22C A60G A73U C76G C103A A122U U151A	≤ -4.2
C14G U55G C57U G86C C125G A137U	≤ -4.2

Attention now turns to another entry.
Q: Quote polymerase ribozyme fitness (log ratio) reported for C54U C63A C149U please.
Ans: -1.67
